Biological target: full length MPS1 (Homo sapiens)
Sequence (P33981 whole entry): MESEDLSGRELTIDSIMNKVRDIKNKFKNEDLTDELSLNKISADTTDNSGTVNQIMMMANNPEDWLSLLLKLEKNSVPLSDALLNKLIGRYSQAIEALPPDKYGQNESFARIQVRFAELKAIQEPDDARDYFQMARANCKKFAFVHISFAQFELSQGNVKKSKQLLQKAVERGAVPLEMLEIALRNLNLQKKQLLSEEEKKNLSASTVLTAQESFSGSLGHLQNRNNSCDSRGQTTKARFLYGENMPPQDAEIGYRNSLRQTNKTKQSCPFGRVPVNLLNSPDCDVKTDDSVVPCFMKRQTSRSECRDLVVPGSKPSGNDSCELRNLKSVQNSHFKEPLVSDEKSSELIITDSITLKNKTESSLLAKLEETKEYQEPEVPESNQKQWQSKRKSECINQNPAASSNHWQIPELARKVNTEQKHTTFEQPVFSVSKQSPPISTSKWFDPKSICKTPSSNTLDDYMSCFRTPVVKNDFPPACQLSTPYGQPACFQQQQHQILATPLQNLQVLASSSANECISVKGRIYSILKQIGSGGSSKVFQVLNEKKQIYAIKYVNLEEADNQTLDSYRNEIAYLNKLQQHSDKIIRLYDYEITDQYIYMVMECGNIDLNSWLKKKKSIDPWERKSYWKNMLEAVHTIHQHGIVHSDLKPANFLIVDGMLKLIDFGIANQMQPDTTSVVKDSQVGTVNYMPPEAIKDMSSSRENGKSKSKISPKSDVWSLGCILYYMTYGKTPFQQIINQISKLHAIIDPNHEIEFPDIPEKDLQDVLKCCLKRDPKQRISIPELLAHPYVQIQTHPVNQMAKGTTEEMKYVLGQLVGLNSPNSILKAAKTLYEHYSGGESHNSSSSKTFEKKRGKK
Experiment: biochemical
readout: IC50 (nM)
One number for each entry, in nM.

Use the examples below as a reference point.
| molecule | resultUnit | IC50 |
| --- | --- | --- |
| CCN(C)C(=O)c1ccc(Nc2cc3[nH]c(-c4cnn(C)c4)cc3cn2)c(Cl)c1 [Example 144] | nM | 11 |
| COc1cc(OC2CCN(C)CC2)ccc1Nc1cc2[nH]c(-c3cn[nH]c3)cc2cn1 [Example 166] | nM | 7 |

API: the following record is the query input.
Consider the molecule COC1CN(C(=O)c2ccc(Nc3cc4c(cn3)cc(-c3cnn(C)c3)n4C(=O)OC(C)(C)C)c(Cl)c2)C1 [Example 37] and give its measured IC50.
8
